Assay: Mammalian cytotoxicity counter screening (CellTiter-Glo)
Format: cell-based
Conditions: human; read-out: A549 IC50 (cytotoxicity)
valueType: IC50 at 72 h (µM)

- molecule: "N=C(N)c1ccc(OCCCCCOc2ccc(C(=N)N)cc2)cc1 [pentamidine]"
  u: "µM"
  quantitativeResult: 12.8
